Sourced from ChEMBL document CHEMBL4190257

measurement description: Octanol/phosphate buffer distribution coefficient, log D of the compound at 100 uM at pH 7.4 after 24 hrs by shake flask method
Assay type: physicochemical
measurement type: logD at 24 h, 100 µM

# example entries with known answers
chemical smiles	logD at 24 h, 100 µM
CCOc1ccc(-c2cccc(COc3ccc(S(=O)(=O)CC(=O)O)cc3)c2)c(Cl)c1	3.12
O=C(O)CS(=O)(=O)c1ccc(OCc2cccc(-c3ccccc3Cl)c2)cc1	2.47
O=C(O)CS(=O)(=O)c1ccc(OCc2cccc(-c3ccccc3C(F)(F)F)c2)cc1	2.95
CC(C)c1ccccc1-c1cccc(COc2ccc(S(=O)(=O)CC(=O)O)cc2)c1	3.18

1: COc1cc(C)c(-c2cccc(COc3ccc(S(=O)(=O)CC(=O)O)cc3)c2)c(C)c1
2: Cc1cc(OCC(C)C)cc(C)c1-c1cccc(COc2ccc(S(=O)(=O)CC(=O)O)cc2)c1
Consider 1 and 2 . Which of these has its logD at 24 h, 100 µM at a higher number? In your reply, give the label of the chosen option.
2
(2: 3.94, 1: 2.45)

###

target entity: Free fatty acid receptor 1 (Homo sapiens)
Sequence (O14842 whole entry): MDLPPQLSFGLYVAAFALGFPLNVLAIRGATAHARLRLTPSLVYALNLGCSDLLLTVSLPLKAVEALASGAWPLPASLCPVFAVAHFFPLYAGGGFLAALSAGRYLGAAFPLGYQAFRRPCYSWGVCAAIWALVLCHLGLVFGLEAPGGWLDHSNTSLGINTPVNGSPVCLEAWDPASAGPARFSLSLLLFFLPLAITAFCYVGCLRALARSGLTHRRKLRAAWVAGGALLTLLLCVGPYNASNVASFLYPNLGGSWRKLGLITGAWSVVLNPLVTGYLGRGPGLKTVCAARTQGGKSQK
measurement description: Agonist activity at human FFA1 receptor expressed in CHO cells assessed as increase in intracellular calcium flux by Fluo 4AM dye-based FLIPR assay
pEC50: −log10 of the molar value.
measurement type: pEC50

Recorded pEC50, per entry:
compound	pEC50
CCC(C(=O)O)S(=O)(=O)c1ccc(OCc2cccc(-c3c(C)cc(OC)cc3C)c2)cc1 (stereo not drawn)	< 6.00
Cc1ccccc1-c1ccc(COc2cccc(S(=O)(=O)CC(=O)O)c2)cc1	< 6.00

Consider now this further compound.
Tell me the measured pEC50 of `COc1cc(C)c(-c2cccc(COc3ccc(S(=O)(=O)C4(C(=O)O)CC4)cc3)c2)c(C)c1` , please.
< 6.00
